test system: brown dog ticks (Rhipicephalus sanguineus) nymphs; assay: Efficacy of various isoxazolines against brown dog ticks on Guinea pigs (Example 4); type: in vivo; conditions: po, Guinea pigs, oral 10 mg/kg on Day 1, infested Day Zero, engorged detached nymphs counted from Day 4, read-out: Inhibition (efficacy on engorged nymphs)
Assay readout: pest or weed control at 10 mg/kg (%)
Give the number; % is assumed, so skip it.

Here CO/N=C\NC(=O)c1ccc(C2=NOC(c3cc(Cl)cc(Cl)c3)(C(F)(F)F)C2)cc1I (stereo not drawn) was tested on brown dog ticks (Rhipicephalus sanguineus) nymphs, and its pest or weed control at 10 mg/kg came to 88.5

pest or weed control at 10 mg/kg for brown dog ticks (Rhipicephalus sanguineus) nymphs with input CCOCN(C(=O)OC)C(=O)c1ccc(C2=NOC(c3cc(Cl)cc(Cl)c3)(C(F)(F)F)C2)cc1C (stereo not drawn) equals 79.2

Considering CON=CNC(=O)c1ccc(C2=NOC(c3cc(Cl)cc(Cl)c3)(C(F)(F)F)C2)cc1Cl (stereo not drawn) , its pest or weed control at 10 mg/kg with brown dog ticks (Rhipicephalus sanguineus) nymphs was recorded as 52.1

Observed pest or weed control at 10 mg/kg on brown dog ticks (Rhipicephalus sanguineus) nymphs, entry CCON=CNC(=O)c1ccc(C2=NOC(c3cc(Cl)cc(Cl)c3)(C(F)(F)F)C2)cc1I (stereo not drawn) , equals 15.6

// assay brown dog ticks (Rhipicephalus sanguineus) nymphs, entry Cc1cc(C2=NOC(c3cc(Cl)cc(Cl)c3)(C(F)(F)F)C2)ccc1C(=O)NCc1cscn1 (stereo not drawn) , pest or weed control at 10 mg/kg value = 100

Summary: Cc1cc(C2=NOC(c3cc(Cl)cc(Cl)c3)(C(F)(F)F)C2)ccc1C(=O)Nc1ncc(C#N)cn1 (stereo not drawn) , brown dog ticks (Rhipicephalus sanguineus) nymphs, pest or weed control at 10 mg/kg = 0

The compound COC(=O)N(C(=O)c1ccc(C2=NOC(c3cc(Cl)cc(Cl)c3)(C(F)(F)F)C2)cc1C)N(C)c1ccccc1 (stereo not drawn) , tested on brown dog ticks (Rhipicephalus sanguineus) nymphs, showed pest or weed control at 10 mg/kg of 58.5

Known value: brown dog ticks (Rhipicephalus sanguineus) nymphs pest or weed control at 10 mg/kg of the compound Cc1cc(C2=NOC(c3cc(Cl)cc(Cl)c3)(C(F)(F)F)C2)ccc1C(=O)N[C@@H]1CCOC1 (stereo partly drawn) equals 100

Per the reported brown dog ticks (Rhipicephalus sanguineus) nymphs data, CCOCN(C(=O)OC)C(=O)c1ccc(C2=NOC(c3cc(Cl)cc(Cl)c3)(C(F)(F)F)C2)cc1I (stereo not drawn) has pest or weed control at 10 mg/kg of 76

Hey, brown dog ticks (Rhipicephalus sanguineus) nymphs data for CC(=O)N(C(=O)c1ccc(C2=NOC(c3cc(Cl)cc(Cl)c3)(C(F)(F)F)C2)cc1C)c1ncc(Cl)cn1 (stereo not drawn) : pest or weed control at 10 mg/kg came out at 78.9

Short answer on brown dog ticks (Rhipicephalus sanguineus) nymphs for CCC(=O)N(Cc1cscn1)C(=O)c1ccc(C2=NOC(c3cc(Cl)cc(Cl)c3)(C(F)(F)F)C2)cc1C (stereo not drawn) , pest or weed control at 10 mg/kg: 100

Per the reported brown dog ticks (Rhipicephalus sanguineus) nymphs data, COCN(C(=O)OC)C(=O)c1ccc(C2=NOC(c3cc(Cl)cc(Cl)c3)(C(F)(F)F)C2)cc1C (stereo not drawn) has pest or weed control at 10 mg/kg of 85.3
